- Target Or Test System: catalytic kinase (JH1) domain of human JAK3 (Homo sapiens, UniProt P52333)
- Construct: Catalytic activities of recombinant JAK2, JAK3 and TYK2 kinase domain
- Sequence (P52333 822-1111 limits assumed): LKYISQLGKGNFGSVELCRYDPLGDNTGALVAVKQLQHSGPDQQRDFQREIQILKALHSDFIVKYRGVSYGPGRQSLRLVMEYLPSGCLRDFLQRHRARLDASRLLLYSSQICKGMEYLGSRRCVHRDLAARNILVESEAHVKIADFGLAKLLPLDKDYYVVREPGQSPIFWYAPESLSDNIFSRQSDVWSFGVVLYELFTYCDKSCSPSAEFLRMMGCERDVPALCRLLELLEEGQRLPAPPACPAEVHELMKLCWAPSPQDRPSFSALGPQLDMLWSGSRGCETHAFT
- Protocol Description: ADP-Glo kinase assay, JAK3 kinase domain
- Format: biochemical
Please provide measured log10 of IC50 for the entries that follow.
Give log10 of IC50, with IC50 taken in µM.

Hi team, please reply with log10 of IC50 for each item in this list.
1. Cn1cc(-c2cc3c(N4CC5CCC(C4)N5C4CC5(COC5)C4)ccnn3c2)cn1 [Example 33]
2. Cn1cc(-c2cc3c(N4CC5CCC(C4)N5[C@@H]4C[C@H](C#N)C4(C)C)ccnn3c2)cn1 (single isomer, unassigned) [Example 48]

[0.79, 0.13]

// for each compound below, give its log10 of IC50
1. Cn1cc(-c2cc3c(N4CC5CCC(C4)N5[C@@H]4CCC45COC5)ccnn3c2)cn1 (single isomer, unassigned) [Example 41]
2. Cn1cc(-c2cc3c(N4CC5CCC(C4)N5[C@H]4C[C@@H](S(C)(=O)=O)C4)ccnn3c2)cn1 [Example 36]
3. Cn1cc(-c2cn3nccc(N4CC5CCC(C4)N5[C@H]4C[C@H](C#N)C4)c3n2)cn1 [Example 66]

0.93
0.23
-0.99

Origin of measurements: patent US20250387400A1
